# Lookup of reported pIC50 keyed by entry
Tested on: HepG2 cell line
Assay: in vitro cytotoxicity assay (MTS tetrazolium reduction, cell viability)
Type: cell-based
Settings: Homo sapiens, HepG2, 48 h, Table 1, cytotoxicity, MTS, read-out: IC50
Method: In an embodiment, the in vitro cytotoxicity assay was carried out as follows. […] The assay was performed in 96 well plates for 48 h at 37° C. and 5% CO2 in incubation medium (low glucose DMEM with Glutamax, 10% FBS, 1% Pen/Strep and DMSO). […] The amount of soluble formazan produced was evaluated by 490 nm absorbance reading in a spectrophotometer plate reader.
pIC50: −log10 of the molar value.
quantityMeasured: pIC50

{"compound": "CCOC(=O)C1CCN(c2ccc3cc(-c4ccc(F)nc4)ccc3n2)CC1", "experimentalSystem": "HepG2 cell line", "val": "< 4.00"}
{"compound": "CCOC(=O)C1CCN(c2ccc3cc(-c4cnc(OC)nc4)ccc3n2)CC1", "experimentalSystem": "HepG2 cell line", "val": "< 4.00"}
{"compound": "CCOC(=O)C1CCN(c2ccc3cc(-c4ccnc(C)c4)ccc3n2)CC1", "experimentalSystem": "HepG2 cell line", "val": "4.30 to 4.70"}
{"compound": "CCOC(=O)C1CCN(c2ccc3cc(-c4ccc(O)cc4)ccc3n2)CC1", "experimentalSystem": "HepG2 cell line", "val": "< 4.00"}
{"compound": "CCOC(=O)C1CCN(c2ccc3cc(-c4cccc(OC)c4)ccc3n2)CC1", "experimentalSystem": "HepG2 cell line", "val": "< 4.00"}
{"compound": "COc1cccc(-c2ccc3nc(N4CCC(C(=O)O)CC4)ccc3c2)c1", "experimentalSystem": "HepG2 cell line", "val": "< 4.00"}
{"compound": "CCOC(=O)C1CCN(c2ccc3cc(-c4ccco4)ccc3n2)CC1", "experimentalSystem": "HepG2 cell line", "val": "< 4.00"}
{"compound": "CCOC(=O)C1CCN(c2ccc3cc(-c4cccc(O)c4)ccc3n2)CC1", "experimentalSystem": "HepG2 cell line", "val": "< 4.00"}
{"compound": "CCOC(=O)C1CCN(c2ccc3cc(-c4cc(OC)cc(OC)c4)ccc3n2)CC1", "experimentalSystem": "HepG2 cell line", "val": "4.00 to 4.30"}
{"compound": "CCOC(=O)C1CCCN(c2ccc3cc(-c4ccncc4)ccc3n2)C1 (stereo not drawn)", "experimentalSystem": "HepG2 cell line", "val": "< 4.00"}
{"compound": "CCOC(=O)C1CCN(c2ccc3cc(-c4ccc5[nH]ccc5c4)ccc3n2)CC1", "experimentalSystem": "HepG2 cell line", "val": "4.30 to 4.70"}
{"compound": "CCOC(=O)C1CCN(c2ccc3cc(-c4ccnc(F)c4)ccc3n2)CC1", "experimentalSystem": "HepG2 cell line", "val": "4.00 to 4.30"}
